Each recorded value in this set is attributed to ChEMBL document CHEMBL4396876.

assay: Plasma concentration in Balb/c mouse at 30 mg/kg, po administered via gavage as single dose using MC/EtOH formulation measured after 3 hrs by LC-MS/MS analysis; assay type: ADME, organism-based
REPORTED_PROPERTY: concentration at 3 h (ng/mL)
Write it as a number; the unit ng/mL goes unstated.

INPUT: # input compound: Cc1ccc(CN(Cc2ccc(C(=O)N3CCc4ccc(OS(N)(=O)=O)cc4C3)cc2)Cc2ccco2)s1 ; wanted: its concentration at 3 h
OUTPUT: 19

* * *

experiment: Plasma concentration in Balb/c mouse at 30 mg/kg, sc administered as single dose using MC/EtOH formulation measured after 7 hrs by LC-MS/MS analysis; format: ADME, organism-based
REPORTED_PROPERTY: concentration at 7 h (ng/mL)
Write it as a number; the unit ng/mL goes unstated.

INPUT: # input compound: Cc1ccc(CN(Cc2ccc(C(=O)N3CCc4ccc(OS(N)(=O)=O)cc4C3)cc2)Cc2ccco2)s1 ; wanted: its concentration at 7 h
OUTPUT: 530

* * *

test: AUC (0 to 24 hrs) in Balb/c mouse at 10 mg/kg, sc administered as single dose using MC/EtOH formulation by LC-MS/MS analysis; type: ADME, organism-based; design: dose 10 mg/kg, time < 24 hr, route subcutaneous; conditions: in vivo
REPORTED_PROPERTY: AUC(0-t) at 24 h (ng·h/mL)
Write it as a number; the unit ng·h/mL goes unstated.

INPUT: # input compound: Cc1ccc(CN(Cc2ccc(C(=O)N3CCc4ccc(OS(N)(=O)=O)cc4C3)cc2)Cc2ccco2)s1 ; wanted: its AUC(0-t) at 24 h
OUTPUT: 5200

* * *

test: Plasma concentration in Balb/c mouse at 2 mg/kg, sc administered as single dose using MC/EtOH formulation measured after 12 hrs by LC-MS/MS analysis; format: ADME, organism-based
REPORTED_PROPERTY: concentration at 12 h (ng/mL)
Write it as a number; the unit ng/mL goes unstated.

INPUT: # input molecule: Cc1ccc(CN(Cc2ccc(C(=O)N3CCc4ccc(OS(N)(=O)=O)cc4C3)cc2)Cc2ccco2)s1 ; wanted: its concentration at 12 h
OUTPUT: 1

* * *

assay: Plasma concentration in Balb/c mouse at 30 mg/kg, po administered via gavage as single dose using MC/EtOH formulation measured at 1 hr by LC-MS/MS analysis; type: ADME, organism-based
REPORTED_PROPERTY: concentration at 1 h (ng/mL)
Write it as a number; the unit ng/mL goes unstated.

INPUT: # input compound: Cc1ccc(CN(Cc2ccc(C(=O)N3CCc4ccc(OS(N)(=O)=O)cc4C3)cc2)Cc2ccco2)s1 ; wanted: its concentration at 1 h
OUTPUT: 308

* * *

assay: Plasma concentration in Balb/c mouse at 10 mg/kg, sc administered as single dose using MC/EtOH formulation measured after 7 hrs by LC-MS/MS analysis; assay type: ADME, organism-based
REPORTED_PROPERTY: concentration at 7 h (ng/mL)
Write it as a number; the unit ng/mL goes unstated.

INPUT: # input compound: Cc1ccc(CN(Cc2ccc(C(=O)N3CCc4ccc(OS(N)(=O)=O)cc4C3)cc2)Cc2ccco2)s1 ; wanted: its concentration at 7 h
OUTPUT: 15

* * *

experiment: Plasma concentration in Balb/c mouse at 10 mg/kg, sc administered as single dose using MC/EtOH formulation measured after 12 hrs by LC-MS/MS analysis; format: ADME, organism-based
REPORTED_PROPERTY: concentration at 12 h (ng/mL)
Write it as a number; the unit ng/mL goes unstated.

INPUT: # input compound: Cc1ccc(CN(Cc2ccc(C(=O)N3CCc4ccc(OS(N)(=O)=O)cc4C3)cc2)Cc2ccco2)s1 ; wanted: its concentration at 12 h
OUTPUT: 4
